// data source = patent US11298367B2

# measurement_target: human V1a receptor (Homo sapiens)
# Construct: expressed in transfected cells; host or cells: CHO K1 (Chinese hamster ovary), also stably transfected with a modified aequorin
# test_method_notes: Cellular in vitro assay for vasopressin receptor activity (V1a, aequorin luminescence)
# Assay type: cell-based
# experimental_parameters: CHO cell line with human V1a receptor, [Arg8]-vasopressin at EC50; values are for the prodrug as such; read-out: IC50 hV1a
pIC50: −log10 of the molar value.
In this section we review reported pIC50 values for a set of molecules.

# molecule, pIC50
rows = [
    ("NC(=O)c1nc(Cn2nc(-c3ccc(Cl)cc3)n(C[C@H](OP(=O)(O)O)C(F)(F)F)c2=O)nn1-c1ncccc1C(F)(F)F", 7.80),
    ("NC(=O)c1nc(Cn2nc(-c3ccc(Cl)cc3)n(C[C@H](OP(=O)([O-])[O-])C(F)(F)F)c2=O)nn1-c1ncccc1C(F)(F)F.[Mg+2] [Example 9, Phosphate]", 7.85),
    ("NC(=O)c1nc(Cn2nc(-c3ccc(Cl)cc3)n(C[C@H](OP(=O)([O-])O)C(F)(F)F)c2=O)nn1-c1ncccc1Cl.[Na+] [Example 21, Phosphate]", 7.68),
    ("NC(=O)c1nc(Cn2nc(-c3ccc(Cl)cc3)n(C[C@H](OP(=O)([O-])O)C(F)(F)F)c2=O)nn1-c1ncccc1C(F)(F)F.[K+] [Example 2, Phosphate]", 7.40),
    ("NC(=O)c1nc(Cn2nc(-c3ccc(Cl)cc3)n(C[C@H](OP(=O)(O)O)C(F)(F)F)c2=O)nn1-c1ncccc1Cl", 8.01),
    ("NC(=O)c1nc(Cn2nc(-c3ccc(Cl)cc3)n(C[C@H](OP(=O)([O-])O)C(F)(F)F)c2=O)nn1-c1ncccc1Cl.[K+] [Example 19, Phosphate]", 7.62),
]

---

Reported IC50 values for a set of compounds
# measurement_target: human V1a receptor (Homo sapiens, UniProt P37288)
# Construct: expressed in transfected cells; host or cells: CHO K1 (Chinese hamster ovary), also stably transfected with a modified aequorin
# Sequence (P37288 whole entry): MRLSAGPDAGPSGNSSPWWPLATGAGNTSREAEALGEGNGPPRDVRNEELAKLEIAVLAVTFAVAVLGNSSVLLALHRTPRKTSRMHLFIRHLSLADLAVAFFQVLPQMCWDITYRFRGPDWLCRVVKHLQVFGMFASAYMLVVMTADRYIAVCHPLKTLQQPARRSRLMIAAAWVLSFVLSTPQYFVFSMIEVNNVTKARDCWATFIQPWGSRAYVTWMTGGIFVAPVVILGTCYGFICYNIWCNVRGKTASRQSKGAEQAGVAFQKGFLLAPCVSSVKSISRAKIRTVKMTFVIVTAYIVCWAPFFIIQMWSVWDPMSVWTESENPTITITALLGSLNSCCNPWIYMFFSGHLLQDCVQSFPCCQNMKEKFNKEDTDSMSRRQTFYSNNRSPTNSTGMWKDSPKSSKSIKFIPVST
# test_method_notes: Cellular in vitro assay for verification of prodrug conversion into drug (with/without alkaline phosphatase)
# Assay type: cell-based
# experimental_parameters: human V1a CHO cells; pre-incubation 15 min with 500 units alkaline phosphatase at 37° C.; read-out: IC50 with AP
endpoint_label: IC50 (nM)

# smiles_str, recorded_measurement
records = [
    ("NC(=O)c1nc(Cn2nc(-c3ccc(Cl)cc3)n(C[C@H](O)C(F)(F)F)c2=O)nn1-c1ncccc1Cl", 1.1),
    ("NC(=O)c1nc(Cn2nc(-c3ccc(Cl)cc3)n(C[C@H](O)C(F)(F)F)c2=O)nn1-c1ccccc1C(F)(F)F", 1.35),
    ("NC(=O)c1nc(Cn2nc(-c3ccc(Cl)cc3)n(C[C@H](O)C(F)(F)F)c2=O)nn1-c1ncccc1C(F)(F)F", 1.35),
    ("NC(=O)c1nc(Cn2nc(-c3ccc(Cl)cc3)n(C[C@H](OP(=O)(O)O)C(F)(F)F)c2=O)nn1-c1ccccc1C(F)(F)F", 1.3),
    ("NC(=O)c1nc(Cn2nc(-c3ccc(Cl)cc3)n(C[C@H](OP(=O)(O)O)C(F)(F)F)c2=O)nn1-c1ncccc1Cl", 1.03),
    ("NC(=O)c1nc(Cn2nc(-c3ccc(Cl)cc3)n(C[C@H](OP(=O)(O)O)C(F)(F)F)c2=O)nn1-c1ncccc1C(F)(F)F", 1.45),
]

---

# measurement_target: human V1a receptor (Homo sapiens)
# Construct: expressed in transfected cells; host or cells: CHO K1 (Chinese hamster ovary), also stably transfected with a modified aequorin
# test_method_notes: Cellular in vitro assay for vasopressin receptor activity (V1a, aequorin luminescence)
# Format: cell-based
# experimental_parameters: selectivity ratio hV2/hV1a
Kind request: treat 4 as inclusive, so ratio IC50 hV2/hV1a at 4 or higher is true, anything lower is false.

# smiles_str, answer_label
records = [
    ("NC(=O)c1nc(Cn2nc(-c3ccc(Cl)cc3)n(C[C@H](OP(=O)(O)O)C(F)(F)F)c2=O)nn1-c1ncccc1Cl", "true"),
    ("NC(=O)c1nc(Cn2nc(-c3ccc(Cl)cc3)n(C[C@H](OP(=O)([O-])[O-])C(F)(F)F)c2=O)nn1-c1ccccc1C(F)(F)F.[Ca+2]", "false"),
    ("NC(=O)c1nc(Cn2nc(-c3ccc(Cl)cc3)n(C[C@H](OP(=O)([O-])[O-])C(F)(F)F)c2=O)nn1-c1ccccc1C(F)(F)F.[Mg+2]", "false"),
    ("NC(=O)c1nc(Cn2nc(-c3ccc(Cl)cc3)n(C[C@H](OP(=O)(O)O)C(F)(F)F)c2=O)nn1-c1ccccc1C(F)(F)F", "true"),
    ("NC(=O)c1nc(Cn2nc(-c3ccc(Cl)cc3)n(C[C@H](OP(=O)([O-])[O-])C(F)(F)F)c2=O)nn1-c1ncccc1C(F)(F)F.[Mg+2]", "true"),
    ("NC(=O)c1nc(Cn2nc(-c3ccc(Cl)cc3)n(C[C@H](OP(=O)([O-])[O-])C(F)(F)F)c2=O)nn1-c1ncccc1C(F)(F)F.[Ca+2]", "true"),
    ("NC(=O)c1nc(Cn2nc(-c3ccc(Cl)cc3)n(C[C@H](OP(=O)([O-])[O-])C(F)(F)F)c2=O)nn1-c1ncccc1Cl.[Ca+2]", "false"),
    ("NC(=O)c1nc(Cn2nc(-c3ccc(Cl)cc3)n(C[C@H](O)C(F)(F)F)c2=O)nn1-c1ncccc1Cl", "true"),
    ("NC(=O)c1nc(Cn2nc(-c3ccc(Cl)cc3)n(C[C@H](O)C(F)(F)F)c2=O)nn1-c1ccccc1C(F)(F)F", "true"),
    ("NC(=O)c1nc(Cn2nc(-c3ccc(Cl)cc3)n(C[C@H](OP(=O)(O)O)C(F)(F)F)c2=O)nn1-c1ncccc1C(F)(F)F", "true"),
    ("NC(=O)c1nc(Cn2nc(-c3ccc(Cl)cc3)n(C[C@H](O)C(F)(F)F)c2=O)nn1-c1ncccc1C(F)(F)F", "true"),
    ("NC(=O)c1nc(Cn2nc(-c3ccc(Cl)cc3)n(C[C@H](OP(=O)([O-])[O-])C(F)(F)F)c2=O)nn1-c1ncccc1Cl.[Mg+2]", "false"),
]

---

Listed here are compounds together with their documented IC50.
# measurement_target: human V2 receptor (Homo sapiens)
# Sequence (P30518 whole entry): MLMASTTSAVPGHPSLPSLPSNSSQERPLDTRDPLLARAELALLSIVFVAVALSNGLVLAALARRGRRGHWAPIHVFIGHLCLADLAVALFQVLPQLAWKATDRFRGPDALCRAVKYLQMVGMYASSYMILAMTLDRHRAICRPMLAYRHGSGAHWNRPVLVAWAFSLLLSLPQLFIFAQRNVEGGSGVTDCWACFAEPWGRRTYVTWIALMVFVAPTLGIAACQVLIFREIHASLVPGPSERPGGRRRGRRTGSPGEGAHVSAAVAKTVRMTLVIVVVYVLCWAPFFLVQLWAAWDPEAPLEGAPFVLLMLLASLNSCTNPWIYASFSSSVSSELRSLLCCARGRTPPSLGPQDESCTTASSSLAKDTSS
# test_method_notes: Cellular in vitro assay for vasopressin receptor activity (V2, CRE-luciferase)
# experimental_parameters: CHO cell line with human V2 receptor, [Arg8]-vasopressin at EC50; values are for the prodrug as such; read-out: IC50 hV2
endpoint_label: IC50 (nM)

# compound, recorded_measurement
rows = [
    ("NC(=O)c1nc(Cn2nc(-c3ccc(Cl)cc3)n(C[C@H](OP(=O)([O-])[O-])C(F)(F)F)c2=O)nn1-c1ncccc1Cl.[Ca+2] [Example 23, Phosphate]", 73.5),
    ("NC(=O)c1nc(Cn2nc(-c3ccc(Cl)cc3)n(C[C@H](OP(=O)(O)O)C(F)(F)F)c2=O)nn1-c1ccccc1C(F)(F)F [Example 10]", 47),
    ("NC(=O)c1nc(Cn2nc(-c3ccc(Cl)cc3)n(C[C@H](OP(=O)([O-])O)C(F)(F)F)c2=O)nn1-c1ccccc1C(F)(F)F.[K+] [Example 11, Phosphate]", 37),
    ("NC(=O)c1nc(Cn2nc(-c3ccc(Cl)cc3)n(C[C@H](OP(=O)([O-])[O-])C(F)(F)F)c2=O)nn1-c1ccccc1C(F)(F)F.[Ca+2] [Example 16, Phosphate]", 30.5),
    ("NC(=O)c1nc(Cn2nc(-c3ccc(Cl)cc3)n(C[C@H](OP(=O)([O-])O)C(F)(F)F)c2=O)nn1-c1ncccc1Cl.[K+] [Example 19, Phosphate]", 51),
    ("NC(=O)c1nc(Cn2nc(-c3ccc(Cl)cc3)n(C[C@H](OP(=O)([O-])O)C(F)(F)F)c2=O)nn1-c1ccccc1C(F)(F)F.[Na+] [Example 14, Phosphate]", 18.5),
    ("NC(=O)c1nc(Cn2nc(-c3ccc(Cl)cc3)n(C[C@H](OP(=O)([O-])O)C(F)(F)F)c2=O)nn1-c1ncccc1C(F)(F)F.[Li+] [Example 7, Phosphate]", 160),
    ("NC(=O)c1nc(Cn2nc(-c3ccc(Cl)cc3)n(C[C@H](OP(=O)([O-])O)C(F)(F)F)c2=O)nn1-c1ncccc1Cl.[K+] [Example 18, Phosphate]", 84),
    ("NC(=O)c1nc(Cn2nc(-c3ccc(Cl)cc3)n(C[C@H](OP(=O)([O-])[O-])C(F)(F)F)c2=O)nn1-c1ccccc1C(F)(F)F.[Mg+2] [Example 15, Phosphate]", 21),
    ("NC(=O)c1nc(Cn2nc(-c3ccc(Cl)cc3)n(C[C@H](OP(=O)([O-])[O-])C(F)(F)F)c2=O)nn1-c1ncccc1Cl.[Mg+2] [Example 22, Phosphate]", 90),
    ("NC(=O)c1nc(Cn2nc(-c3ccc(Cl)cc3)n(C[C@H](OP(=O)([O-])O)C(F)(F)F)c2=O)nn1-c1ncccc1C(F)(F)F.[K+] [Example 3, Phosphate]", 123),
    ("NC(=O)c1nc(Cn2nc(-c3ccc(Cl)cc3)n(C[C@H](OP(=O)([O-])O)C(F)(F)F)c2=O)nn1-c1ncccc1C(F)(F)F.[Na+] [Example 5, Phosphate]", 85),
    ("NC(=O)c1nc(Cn2nc(-c3ccc(Cl)cc3)n(C[C@H](OP(=O)([O-])[O-])C(F)(F)F)c2=O)nn1-c1ncccc1C(F)(F)F.[Ca+2] [Example 8, Phosphate]", 145),
    ("NC(=O)c1nc(Cn2nc(-c3ccc(Cl)cc3)n(C[C@H](OP(=O)([O-])O)C(F)(F)F)c2=O)nn1-c1ncccc1Cl.[Na+] [Example 21, Phosphate]", 38),
    ("NC(=O)c1nc(Cn2nc(-c3ccc(Cl)cc3)n(C[C@H](OP(=O)([O-])O)C(F)(F)F)c2=O)nn1-c1ncccc1C(F)(F)F.[K+] [Example 2, Phosphate]", 620),
    ("NC(=O)c1nc(Cn2nc(-c3ccc(Cl)cc3)n(C[C@H](OP(=O)([O-])O)C(F)(F)F)c2=O)nn1-c1ccccc1C(F)(F)F.[K+] [Example 12, Phosphate]", 24),
    ("NC(=O)c1nc(Cn2nc(-c3ccc(Cl)cc3)n(C[C@H](OP(=O)([O-])O)C(F)(F)F)c2=O)nn1-c1ccccc1C(F)(F)F.[Na+] [Example 13, Phosphate]", 26.5),
    ("NC(=O)c1nc(Cn2nc(-c3ccc(Cl)cc3)n(C[C@H](OP(=O)([O-])[O-])C(F)(F)F)c2=O)nn1-c1ncccc1C(F)(F)F.[Mg+2] [Example 9, Phosphate]", 225),
    ("NC(=O)c1nc(Cn2nc(-c3ccc(Cl)cc3)n(C[C@H](OP(=O)([O-])O)C(F)(F)F)c2=O)nn1-c1ncccc1Cl.[Na+] [Example 20, Phosphate]", 85.5),
    ("NC(=O)c1nc(Cn2nc(-c3ccc(Cl)cc3)n(C[C@H](OP(=O)(O)O)C(F)(F)F)c2=O)nn1-c1ncccc1Cl [Example 17]", 130),
    ("NC(=O)c1nc(Cn2nc(-c3ccc(Cl)cc3)n(C[C@H](OP(=O)([O-])O)C(F)(F)F)c2=O)nn1-c1ncccc1C(F)(F)F.[Na+] [Example 4, Phosphate]", 150),
    ("NC(=O)c1nc(Cn2nc(-c3ccc(Cl)cc3)n(C[C@H](OP(=O)([O-])O)C(F)(F)F)c2=O)nn1-c1ncccc1C(F)(F)F.[Li+] [Example 6, Phosphate]", 220),
    ("NC(=O)c1nc(Cn2nc(-c3ccc(Cl)cc3)n(C[C@H](OP(=O)(O)O)C(F)(F)F)c2=O)nn1-c1ncccc1C(F)(F)F [Example 1]", 193),
]
